System: Bmi-1 protein
Assay: Sandwich ELISA Assay: Bmi-1 protein level in HT-1080 cells treated with test compounds
Assay type: cell-based
Readings of EC50 for the listed molecules

These solved cases illustrate the format of a correct answer.
GET /values?readout=EC50&item= CCc1nc2c(F)cc(F)cc2n1-c1nc(N)nc(Nc2ccc(Cl)c(F)c2)n1 [Cpd 200]
100 to 3000 nM

Ok, now Nc1nc(Nc2ccc(OC(F)F)cc2)nc(-n2c(C3CC3)nc3ccccc32)n1 [Cpd 43]
10 to 100 nM

Ok, now Cc1nc2ccc(F)cc2n1-c1nc(N)nc(Nc2ccc(OC(F)F)c(F)c2)n1 [Cpd 29]
10 to 100 nM

Ok, now CCc1nc2ccccc2n1-c1nc(Nc2ccc(C(F)(F)F)cc2)c[n+]([O-])n1 [Cpd 139]
10 to 100 nM

New cases:
GET /values?readout=EC50&item= Nc1nc(Nc2ccc(OC(F)F)cc2)nc(-n2c(C3CC3)nc3c(F)cc(F)cc32)n1 [Cpd 89]
10 to 100 nM

Ok, now Cc1nc2ccccc2n1-c1nc(N)nc(Nc2ccc(C(F)(F)F)c(F)c2)n1 [Cpd 5]
100 to 3000 nM

Ok, now COc1ccc(Nc2cnnc(-n3c(C4CC4)nc4ccccc43)n2)cc1 [Cpd 146]
1 to 10 nM

Ok, now Cc1nc2ncc(Br)cc2n1-c1nc(NCCO)nc(Nc2ccc(C(F)(F)F)cc2)n1 [Cpd 34]
100 to 3000 nM

###

Test system: Bmi-1 protein
Experiment: Sandwich ELISA Assay: Bmi-1 protein level in HT-1080 cells treated with test compounds
Type: cell-based
Assay readout: EC50

These solved cases illustrate the format of a correct answer.
GET /values?readout=EC50&item= Cc1nc2c(F)cccc2n1-c1nc(N)nc(Nc2ccc(C(F)(F)F)cc2)n1
100 to 3000 nM

Ok, now COc1cccc(Nc2nc(N)nc(-n3c(C4CC4)nc4ccccc43)n2)c1
100 to 3000 nM

Ok, now Cc1nc2ccccc2n1-c1nc(NO)nc(Nc2ccc(C(F)(F)F)cc2)n1
100 to 3000 nM

New cases:
GET /values?readout=EC50&item= Cc1nc2ccccc2n1-c1nc(N)nc(Nc2ccc3c(c2)OCO3)n1
1 to 10 nM

Ok, now Nc1nc(Nc2ccc(C(F)(F)F)cc2)nc(-n2c(CO)nc3ccccc32)n1
100 to 3000 nM

###

System: Bmi-1 protein
Experiment: Sandwich ELISA Assay: Bmi-1 protein level in HT-1080 cells treated with test compounds
Type: cell-based
pEC50: −log10 of the molar value.
Readings of pEC50 for the listed molecules

GET /values?readout=pEC50&item= Cc1nc2ccccc2n1-c1nc(N)nc(Nc2ccc3occc3c2)n1 [Cpd 8]
7.00 to 8.00

New cases:
GET /values?readout=pEC50&item= Nc1nc(Nc2ccc(C(F)(F)F)cc2)nc(-n2c(C3CC3)nc3ccc(F)cc32)n1 [Cpd 62]
7.00 to 8.00

Ok, now Nc1nc(Nc2ccc(C(F)(F)F)nc2)nc(-n2c(CF)nc3ccccc32)n1 [Cpd 111]
5.52 to 7.00

Ok, now Cc1ccc(Nc2nc(N)nc(-n3c(C4CC4)nc4ccc(F)cc43)n2)cc1 [Cpd 177]
8.00 to 9.00

###

Readings of pEC50 for the listed compounds
Test system: Bmi-1 protein
Experiment: Sandwich ELISA Assay: Bmi-1 protein level in HT-1080 cells treated with test compounds
Format: cell-based
pEC50: −log10 of the molar value.

These solved cases illustrate the format of a correct answer.
Tell me reported pEC50 for Cc1nc2ccccc2n1-c1nc(NCCO)nc(Nc2cnc3ccccc3c2)n1 , tested with Bmi-1 protein.
7.00 to 8.00

Ok, now N#CCc1nc2ccccc2n1-c1nc(N)nc(Nc2ccc(C(F)(F)F)cc2)n1
5.52 to 7.00

Ok, now Cc1nc2ccccc2n1-c1nc(N)nc(Nc2ccc(C(C)C)cc2)n1
5.52 to 7.00

Ok, now Cc1nc2ccc(F)cc2n1-c1nc(N)nc(Nc2ccc(Cl)c(F)c2)n1
5.52 to 7.00

Now let's try a different one.
Tell me reported pEC50 for COc1ccc(Nc2nc(N)nc(-n3c(C)nc4ccc(F)cc43)n2)cc1 , tested with Bmi-1 protein.
8.00 to 9.00

###

Assay readout: melting point

GET /values?readout=melting point&item= Nc1nc(Nc2ccc(OC(F)F)cc2)nc(-n2c(C(F)F)nc3ccccc32)n1
197 to 199 °C

New cases:
GET /values?readout=melting point&item= Nc1nc(Nc2ccc(C(F)(F)F)nc2)nc(-n2c(CF)nc3ccccc32)n1
178 to 180 °C

Ok, now Nc1nc(Nc2ccc(OC(F)F)c(F)c2)nc(-n2c(C(F)F)nc3ccccc32)n1
201 to 203 °C

###

Test system: Bmi-1 protein
Experiment: Sandwich ELISA Assay: Bmi-1 protein level in HT-1080 cells treated with test compounds
Assay type: cell-based
pEC50: −log10 of the molar value.
Assay readout: pEC50

These solved cases illustrate the format of a correct answer.
GET /values?readout=pEC50&item= Cc1nc2ccccc2n1-c1nc(N)nc(Nc2ccc3[nH]ccc3c2)n1 [Cpd 7]
8.00 to 9.00

Ok, now Nc1nc(Nc2ccc(C(F)(F)F)cc2)nc(-n2c(CF)nc3ccccc32)n1 [Cpd 107]
5.52 to 7.00

Ok, now CCc1nc2ccccc2n1-c1nncc(Nc2ccc(OC(F)F)cc2)n1 [Cpd 100]
7.00 to 8.00

New cases:
GET /values?readout=pEC50&item= Nc1nc(Nc2ccc(Br)cc2)nc(-n2c(C3CC3)nc3cc(F)ccc32)n1 [Cpd 222]
7.00 to 8.00

Ok, now CCc1nc2ccccc2n1-c1nc(N)nc(Nc2ccc(OC(F)F)c(F)c2)n1 [Cpd 37]
7.00 to 8.00

Ok, now Cc1nc2ccccc2n1-c1nc(N)nc(Nc2cccc(OC(F)F)c2)n1 [Cpd 93]
5.52 to 7.00

Ok, now CCc1nc2cc(F)c(F)cc2n1-c1nc(N)nc(Nc2ccc(C(F)(F)F)cc2)n1 [Cpd 116]
5.52 to 7.00

Ok, now Nc1nc(Nc2ccc(C(F)(F)F)cc2)nc(-n2c(C(F)F)nc3cc(F)c(F)cc32)n1 [Cpd 114]
5.52 to 7.00

Ok, now CCc1nc2ccc(F)cc2n1-c1nc(N)nc(Nc2ccc(C(F)(F)F)cc2)n1 [Cpd 55]
7.00 to 8.00

###

System: Bmi-1 protein
Experiment: Sandwich ELISA Assay: Bmi-1 protein level in HT-1080 cells treated with test compounds
Format: cell-based
Protocol: Cell Seeding and Compound Treatment (Day 1): HT-1080 cells were seeded at 8000 cells/well (50 μL) in 96-well tissue culture plates. […] The plate was washed and blotted dry, then a previously prepared TMB substrate (TMB substrate kit, Pierce catalog #34021) (prepared by mixing kit reagents 1:1) (100 μL) was added per well. […] The plates were read at OD450 (experimental) and OD570 (reference).
pEC50: −log10 of the molar value.
Assay readout: pEC50

GET /values?readout=pEC50&item= CCc1nc2c(F)cccc2n1-c1nc(N)nc(Nc2ccc(OC(F)F)c(F)c2)n1
7.00 to 8.00

New cases:
GET /values?readout=pEC50&item= CCc1nc2c(F)cccc2n1-c1nc(N)nc(Nc2ccc(C)cc2)n1
8.00 to 9.00

Ok, now Cc1nc2ncc(Cl)cc2n1-c1nc(N)nc(Nc2ccc(OC(F)F)cc2)n1
7.00 to 8.00

Ok, now Cc1nc2c(F)cccc2n1-c1nc(N)nc(Nc2ccc(Cl)cc2)n1
5.52 to 7.00

Ok, now Nc1nc(Nc2ccc(OC(F)F)nc2)nc(-n2c(C(F)F)nc3ccccc32)n1
7.00 to 8.00

Ok, now Nc1nc(Nc2ccc(Cl)cc2)nc(-n2c(C3CC3)nc3ccc(F)cc32)n1
7.00 to 8.00

Ok, now Cc1nc2c(F)cc(F)cc2n1-c1nc(N)nc(Nc2ccc(OC(F)F)cc2)n1
7.00 to 8.00

Ok, now FC(F)(F)c1ccc(Nc2nncc(-n3c(C4CC4)nc4ccccc43)n2)cc1
7.00 to 8.00

Ok, now COc1ccc(Nc2nc(N)nc(-n3c(C4CC4)nc4ccc(F)cc43)n2)cc1
7.00 to 8.00

Ok, now Cc1nc2ccccc2n1-c1nc(N)nc(Nc2ccc(OC(F)(F)F)cc2)n1
5.52 to 7.00

Ok, now Cc1nc2ncccc2n1-c1nc(N)nc(Nc2ccc(OC(F)F)cc2)n1
5.52 to 7.00

Ok, now Cc1nc2ccccc2n1-c1nc(N)nc(Nc2ccc(Cl)c(F)c2)n1
5.52 to 7.00

Ok, now Cc1nc2ccc(F)cc2n1-c1nc(N)nc(Nc2ccc(C(F)(F)F)cc2)n1
7.00 to 8.00

Ok, now Nc1nc(Nc2ccc(C(F)(F)F)cc2)nc(-n2c(C3CC3)nc3c(F)cc(F)cc32)n1
7.00 to 8.00

Ok, now Fc1ccc2nc(C3CC3)n(-c3cnnc(Nc4ccc(OC(F)F)cc4)n3)c2c1
5.52 to 7.00

Ok, now CCc1nc2c(F)cccc2n1-c1nc(N)nc(Nc2ccc(C(F)(F)F)cc2)n1
7.00 to 8.00

Ok, now Cc1nc2ccc(Cl)cc2n1-c1nc(N)nc(Nc2ccc(OC(F)F)cc2)n1
7.00 to 8.00

Ok, now COc1ccc(Nc2nc(N)nc(-n3c(C4CC4)nc4cc(F)ccc43)n2)cc1
7.00 to 8.00

Ok, now CCc1nc2cc(F)ccc2n1-c1nc(N)nc(Nc2ccc(C(F)(F)F)cc2)n1
7.00 to 8.00

Ok, now CCc1nc2ccccc2n1-c1nc(N)nc(Nc2ccc(OC)cc2)n1
8.00 to 9.00

Ok, now Cc1nc2c(F)cccc2n1-c1nc(N)nc(Nc2ccc(OC(F)F)cc2)n1
7.00 to 8.00
